Taken from paper PMC8675330.

test method notes: In vivo pharmacokinetics in plasma, brain and lung after IV, IN and IN + BorNLC co-administration
Design: species or system CD-1 mice
experimental conditions: CD-1, mouse, plasma, iv, 2.38 mg/kg
Structures can show the parent of a compound that is named as a salt.
observation type: Tmax

> print(dat)
                                   compound  observation.type  reported
1  Fc1ccc([C@@H]2CCNC[C@H]2COc2ccc3c(c2)OCO3)cc1 [Paroxetine, Paroxetine hydrochloride]              Tmax     5 min

Okay, now this compound:
*Q* What does the record list as Tmax for CN(C)CCC[C@@]1(c2ccc(F)cc2)OCc2cc(C#N)ccc21 [Escitalopram, escitalopram oxalate] ?
*A* 5 min

###

test method notes: In vivo pharmacokinetics in plasma, brain and lung after IV, IN and IN + BorNLC co-administration
Set-up: species or system CD-1 mice
experimental conditions: CD-1, mouse, brain, iv, 2.38 mg/kg
Where a name gives a salt, the structure may show the parent alone.
observation type: Cmax (ng/g)
Give the value in ng/g but do not write ng/g after it.

*Q* Please report the recorded Cmax for CN(C)CCC[C@@]1(c2ccc(F)cc2)OCc2cc(C#N)ccc21 [Escitalopram, escitalopram oxalate] .
*A* 511

###

test method notes: In vivo pharmacokinetics in plasma, brain and lung after IV, IN and IN + BorNLC co-administration
Design: species or system CD-1 mice
experimental conditions: CD-1, mouse, lung, inhaled or intranasal, 2.38 mg/kg
Counter-ions that a name gives are not always drawn.
observation type: Tmax (min)
Reply numerically in min, unit not repeated.

*Q* # input compound: CN(C)CCC[C@@]1(c2ccc(F)cc2)OCc2cc(C#N)ccc21 [Escitalopram, escitalopram oxalate] ; wanted: its Tmax
*A* 30

###

test method notes: In vivo pharmacokinetics in plasma, brain and lung after IV, IN and IN + BorNLC co-administration
Parameters: species or system CD-1 mice
experimental conditions: CD-1, mouse, lung/plasma, iv, 2.38 mg/kg; read-out: AUCtlung/AUCtplasma
Where a name gives a salt, the structure may show the parent alone.
observation type: Kp
Simply state the number, no unit and no words.

*Q* Give its Kp value. Item: CN(C)CCC[C@@]1(c2ccc(F)cc2)OCc2cc(C#N)ccc21 [Escitalopram, escitalopram oxalate]
*A* 2.45

###

test method notes: Solubility of escitalopram and paroxetine in liquid lipids
Format: physicochemical
experimental conditions: Labrasol (liquid lipid), oil or lipid, thermodynamic from solid; in Labrasol; 24 h stirring at 25°C; n = 3, mean ± SD
Where a name gives a salt, the structure may show the parent alone.
observation type: solubility at 24 h (mg/mL)
Write it as a number; the unit mg/mL goes unstated.

*Q* Item CN(C)CCC[C@@]1(c2ccc(F)cc2)OCc2cc(C#N)ccc21 [Escitalopram, escitalopram oxalate] has what recorded solubility at 24 h?
*A* 14.7

###

test method notes: Solubility of escitalopram and paroxetine in liquid lipids
Assay type: physicochemical
experimental conditions: oleic acid (liquid lipid), oil or lipid, thermodynamic from solid; in oleic acid; 24 h stirring at 25°C; n = 3, mean ± SD
Structures can show the parent of a compound that is named as a salt.
# key: entry, value: solubility at 24 h
The reply should be a number in µg/mL, with the unit left off.

> print(dat)
                                   compound  reported
1  CN(C)CCC[C@@]1(c2ccc(F)cc2)OCc2cc(C#N)ccc21 [Escitalopram, escitalopram oxalate]       840

// next item, solubility at 24 h requested
*Q* Quick one: solubility at 24 h for Fc1ccc([C@@H]2CCNC[C@H]2COc2ccc3c(c2)OCO3)cc1 [Paroxetine, Paroxetine hydrochloride] ?
*A* 1070
